src = PubChem BioAssay AID504333

- tgt: Bromodomain adjacent to zinc finger domain protein 2B (Homo sapiens) (UniProt Q9UIF8)
- Sequence (Q9UIF8 whole entry, looked up, the tested form may be a part): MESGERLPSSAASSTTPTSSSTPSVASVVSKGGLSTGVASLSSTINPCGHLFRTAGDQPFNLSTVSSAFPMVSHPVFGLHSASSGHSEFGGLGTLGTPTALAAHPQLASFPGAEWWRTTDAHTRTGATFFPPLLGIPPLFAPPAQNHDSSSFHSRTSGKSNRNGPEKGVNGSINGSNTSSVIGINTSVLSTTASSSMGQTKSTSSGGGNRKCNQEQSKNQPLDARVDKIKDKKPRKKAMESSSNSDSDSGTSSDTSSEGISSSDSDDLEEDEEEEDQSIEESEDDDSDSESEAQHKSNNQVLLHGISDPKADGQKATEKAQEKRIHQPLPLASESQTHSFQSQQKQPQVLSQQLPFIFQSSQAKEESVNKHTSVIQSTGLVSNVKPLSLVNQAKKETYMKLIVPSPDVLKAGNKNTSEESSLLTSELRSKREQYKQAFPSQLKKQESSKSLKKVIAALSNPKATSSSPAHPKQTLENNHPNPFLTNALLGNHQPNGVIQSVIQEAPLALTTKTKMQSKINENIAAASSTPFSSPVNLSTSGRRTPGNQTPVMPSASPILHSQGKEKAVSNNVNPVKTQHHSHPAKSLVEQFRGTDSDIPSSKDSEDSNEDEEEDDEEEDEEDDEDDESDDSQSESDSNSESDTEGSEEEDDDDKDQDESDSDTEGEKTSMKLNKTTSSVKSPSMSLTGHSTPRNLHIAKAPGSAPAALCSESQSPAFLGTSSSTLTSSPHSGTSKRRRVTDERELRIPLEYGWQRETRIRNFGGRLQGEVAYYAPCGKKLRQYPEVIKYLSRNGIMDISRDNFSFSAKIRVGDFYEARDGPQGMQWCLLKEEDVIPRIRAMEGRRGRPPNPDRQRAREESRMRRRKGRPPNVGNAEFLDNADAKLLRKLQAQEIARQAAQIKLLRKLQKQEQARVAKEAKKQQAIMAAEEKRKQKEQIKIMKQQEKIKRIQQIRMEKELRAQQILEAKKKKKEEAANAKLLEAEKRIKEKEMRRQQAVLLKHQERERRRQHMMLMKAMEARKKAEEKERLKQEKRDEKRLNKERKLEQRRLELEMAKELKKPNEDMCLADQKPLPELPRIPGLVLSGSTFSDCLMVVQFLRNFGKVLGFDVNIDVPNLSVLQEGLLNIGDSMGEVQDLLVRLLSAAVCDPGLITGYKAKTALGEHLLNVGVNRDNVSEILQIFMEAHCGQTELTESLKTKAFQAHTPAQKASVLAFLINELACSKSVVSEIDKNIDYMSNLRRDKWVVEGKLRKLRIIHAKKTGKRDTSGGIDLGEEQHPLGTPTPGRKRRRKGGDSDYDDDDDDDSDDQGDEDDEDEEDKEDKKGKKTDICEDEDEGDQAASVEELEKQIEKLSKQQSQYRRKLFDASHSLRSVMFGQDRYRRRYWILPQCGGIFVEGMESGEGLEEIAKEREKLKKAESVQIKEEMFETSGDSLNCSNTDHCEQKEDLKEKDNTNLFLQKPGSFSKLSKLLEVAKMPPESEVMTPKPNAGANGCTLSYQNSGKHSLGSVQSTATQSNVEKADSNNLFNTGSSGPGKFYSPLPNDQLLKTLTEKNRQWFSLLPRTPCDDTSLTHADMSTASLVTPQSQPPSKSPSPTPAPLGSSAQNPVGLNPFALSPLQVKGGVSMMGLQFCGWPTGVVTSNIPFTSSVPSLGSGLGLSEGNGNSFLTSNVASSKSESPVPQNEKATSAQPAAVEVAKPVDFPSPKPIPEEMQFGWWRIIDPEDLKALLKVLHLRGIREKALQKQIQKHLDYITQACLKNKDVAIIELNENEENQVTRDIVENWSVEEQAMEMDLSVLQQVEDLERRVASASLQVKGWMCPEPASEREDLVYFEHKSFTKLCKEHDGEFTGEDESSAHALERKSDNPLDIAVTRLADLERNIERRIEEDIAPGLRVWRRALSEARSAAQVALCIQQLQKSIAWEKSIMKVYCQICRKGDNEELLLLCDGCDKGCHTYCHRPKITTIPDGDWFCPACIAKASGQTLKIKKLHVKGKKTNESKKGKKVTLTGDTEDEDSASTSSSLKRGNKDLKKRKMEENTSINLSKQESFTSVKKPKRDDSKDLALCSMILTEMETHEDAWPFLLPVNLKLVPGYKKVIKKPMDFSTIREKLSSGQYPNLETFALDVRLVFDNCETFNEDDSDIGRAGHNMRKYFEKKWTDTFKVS
- test-summary: qHTS Assay for Inhibitors of BAZ2B; further: nearly all actives have a fitted effect of over 60% in size; further: potency means the concentration at half of the fitted maximal effect
- measurement-setup: AlphaScreen BAZ2B-H3K14Ac peptide displacement; series mostly up to 114 µM
About 16,000 (4.4%) of roughly 360,000 compounds were called active. Another 9% or so got no clear call; they are omitted. Only a selection was taken, and actives are over-represented in it overall.
quantity-name: Potency

Cc1ccnc(N2CCCC(C(=O)NC3CC3)C2)n1 (centres undefined) | inactive
CCOc1ccc(S(=O)(=O)c2cn(Cc3ccccc3)c3ccc(OCC)cc3c2=O)cc1 | inactive
Cc1ccc(Nc2nnc(SCC(=O)c3cc4ccccc4o3)s2)cc1C | inactive
Cc1ccnc(-n2sc3ccccc3c2=O)n1 | 25.1 µM (active)
